Sequence of the target: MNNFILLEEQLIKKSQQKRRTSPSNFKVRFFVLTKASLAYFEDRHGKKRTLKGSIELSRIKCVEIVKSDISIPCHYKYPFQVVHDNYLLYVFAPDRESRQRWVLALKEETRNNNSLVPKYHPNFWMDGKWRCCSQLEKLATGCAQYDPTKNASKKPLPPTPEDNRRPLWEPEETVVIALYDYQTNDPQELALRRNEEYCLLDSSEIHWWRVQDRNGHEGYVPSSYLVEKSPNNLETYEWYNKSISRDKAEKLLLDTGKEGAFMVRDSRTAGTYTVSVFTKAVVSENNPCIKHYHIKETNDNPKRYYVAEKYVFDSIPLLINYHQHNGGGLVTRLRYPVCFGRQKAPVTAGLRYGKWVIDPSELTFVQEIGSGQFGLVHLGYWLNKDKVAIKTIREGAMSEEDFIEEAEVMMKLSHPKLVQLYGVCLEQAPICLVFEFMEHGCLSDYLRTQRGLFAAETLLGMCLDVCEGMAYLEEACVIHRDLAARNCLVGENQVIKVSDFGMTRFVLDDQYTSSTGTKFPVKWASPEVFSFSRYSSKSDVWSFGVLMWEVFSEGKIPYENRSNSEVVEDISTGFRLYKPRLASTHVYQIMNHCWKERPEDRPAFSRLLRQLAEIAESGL
Below: a set of entries, each annotated with reported Ki.

Some entries whose results are on file:
{"Compound": "Nc1nn2cc(-c3ccccc3[N+](=O)[O-])cnc2c1-c1ccccn1", "Ki": "0.5 to 5 µM"}
{"Compound": "Nc1nn2cc(N3CCC[C@@H]3CN3CCCC3)cnc2c1-c1ccccn1", "Ki": "0.5 to 5 µM"}
{"Compound": "Cc1cnc2c(-c3cc(N4CCC(S(C)(=O)=O)C4)ncn3)c(N)nn2c1 (centres unmarked)", "Ki": "< 0.5 µM"}
{"Compound": "Nc1nn2cc(-c3cccnc3N3CCC[C@H]3CO)cnc2c1-c1ccccn1", "Ki": "0.5 to 5 µM"}
{"Compound": "Nc1ccccc1-c1cnc2c(-c3ccccn3)c(N)nn2c1", "Ki": "0.5 to 5 µM"}

Inquiry: For the compound `COC(=O)C1CCN(c2ncccc2-c2cnc3c(-c4ccccn4)c(N)nn3c2)CC1` , give its reported Ki.
Reply text: 0.5 to 5 µM

Inquiry: Give a short answer stating reported Ki for `Nc1nn2cc(-c3cccc(C(=O)N4CCC4)n3)cnc2c1-c1ccccn1` .
Reply text: 0.5 to 5 µM

Inquiry: Input `Nc1nn2cc(-c3ccc(CN4CCCNCC4)cc3)cnc2c1-c1ccccn1` , output reported Ki.
Reply text: < 0.5 µM

----------
Below is a list of entries, each paired with its recorded pKi value.
Sequence of the target: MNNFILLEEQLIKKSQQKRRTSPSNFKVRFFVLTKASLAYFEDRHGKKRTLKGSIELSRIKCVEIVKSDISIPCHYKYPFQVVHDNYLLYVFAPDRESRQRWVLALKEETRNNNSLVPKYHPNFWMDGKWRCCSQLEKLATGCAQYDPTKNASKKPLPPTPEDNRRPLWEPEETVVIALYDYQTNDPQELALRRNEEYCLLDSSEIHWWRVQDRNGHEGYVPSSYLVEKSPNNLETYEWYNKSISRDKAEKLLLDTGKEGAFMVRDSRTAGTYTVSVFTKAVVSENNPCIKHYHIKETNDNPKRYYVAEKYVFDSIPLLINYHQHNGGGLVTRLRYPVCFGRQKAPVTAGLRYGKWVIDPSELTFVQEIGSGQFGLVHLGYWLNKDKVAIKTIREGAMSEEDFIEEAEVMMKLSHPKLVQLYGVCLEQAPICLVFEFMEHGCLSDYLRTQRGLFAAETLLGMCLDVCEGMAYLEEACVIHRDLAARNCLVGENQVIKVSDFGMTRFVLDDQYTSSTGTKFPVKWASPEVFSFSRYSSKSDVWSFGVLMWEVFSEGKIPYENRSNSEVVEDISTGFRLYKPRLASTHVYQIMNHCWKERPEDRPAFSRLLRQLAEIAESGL
pKi: −log10 of the molar value.

Use the examples below as a reference point.
{"Compound": "Nc1nn2cc(-c3ccncc3)cnc2c1-c1cccc(Br)n1", "Measurement Type": "pKi", "Obs Value": "5.30 to 6.30"}
{"Compound": "Nc1nn2cc(-c3ccc(N4CCC(N)CC4)nc3)cnc2c1-c1ccccn1", "Measurement Type": "pKi", "Obs Value": "> 6.30"}
{"Compound": "CCN1CCN(C(=O)c2ccc(-c3cnc4c(-c5ccccn5)c(N)nn4c3)nc2)C(O)C1 (centres unmarked)", "Measurement Type": "pKi", "Obs Value": "> 6.30"}
{"Compound": "CCN(CCC#N)C(=O)c1cccc(-c2cnc3c(-c4ccccn4)c(N)nn3c2)n1", "Measurement Type": "pKi", "Obs Value": "5.30 to 6.30"}
{"Compound": "COC[C@H](C)Nc1cc(-c2c(N)nn3cc(C)cnc23)ncn1", "Measurement Type": "pKi", "Obs Value": "5.30 to 6.30"}

Inquiry: Output measured pKi for this item: `CNCCCN(C)C(=O)c1ccc(-c2cnc3c(-c4ccccn4)c(N)nn3c2)cc1`
Reply text: > 6.30

Inquiry: Name the recorded pKi of the item `Nc1nn2cc(CCCNC3CCC3)cnc2c1-c1ccccn1` in your answer.
Reply text: 5.30 to 6.30

Inquiry: Identify the reported pKi for the following entry. `Cc1cnc2c(-c3cc(N4CCC(C(N)=O)CC4)ncn3)c(N)nn2c1`
Reply text: 5.30 to 6.30

----------
Molecular target: c-Met (Homo sapiens)
Sequence (P08581 25-1390): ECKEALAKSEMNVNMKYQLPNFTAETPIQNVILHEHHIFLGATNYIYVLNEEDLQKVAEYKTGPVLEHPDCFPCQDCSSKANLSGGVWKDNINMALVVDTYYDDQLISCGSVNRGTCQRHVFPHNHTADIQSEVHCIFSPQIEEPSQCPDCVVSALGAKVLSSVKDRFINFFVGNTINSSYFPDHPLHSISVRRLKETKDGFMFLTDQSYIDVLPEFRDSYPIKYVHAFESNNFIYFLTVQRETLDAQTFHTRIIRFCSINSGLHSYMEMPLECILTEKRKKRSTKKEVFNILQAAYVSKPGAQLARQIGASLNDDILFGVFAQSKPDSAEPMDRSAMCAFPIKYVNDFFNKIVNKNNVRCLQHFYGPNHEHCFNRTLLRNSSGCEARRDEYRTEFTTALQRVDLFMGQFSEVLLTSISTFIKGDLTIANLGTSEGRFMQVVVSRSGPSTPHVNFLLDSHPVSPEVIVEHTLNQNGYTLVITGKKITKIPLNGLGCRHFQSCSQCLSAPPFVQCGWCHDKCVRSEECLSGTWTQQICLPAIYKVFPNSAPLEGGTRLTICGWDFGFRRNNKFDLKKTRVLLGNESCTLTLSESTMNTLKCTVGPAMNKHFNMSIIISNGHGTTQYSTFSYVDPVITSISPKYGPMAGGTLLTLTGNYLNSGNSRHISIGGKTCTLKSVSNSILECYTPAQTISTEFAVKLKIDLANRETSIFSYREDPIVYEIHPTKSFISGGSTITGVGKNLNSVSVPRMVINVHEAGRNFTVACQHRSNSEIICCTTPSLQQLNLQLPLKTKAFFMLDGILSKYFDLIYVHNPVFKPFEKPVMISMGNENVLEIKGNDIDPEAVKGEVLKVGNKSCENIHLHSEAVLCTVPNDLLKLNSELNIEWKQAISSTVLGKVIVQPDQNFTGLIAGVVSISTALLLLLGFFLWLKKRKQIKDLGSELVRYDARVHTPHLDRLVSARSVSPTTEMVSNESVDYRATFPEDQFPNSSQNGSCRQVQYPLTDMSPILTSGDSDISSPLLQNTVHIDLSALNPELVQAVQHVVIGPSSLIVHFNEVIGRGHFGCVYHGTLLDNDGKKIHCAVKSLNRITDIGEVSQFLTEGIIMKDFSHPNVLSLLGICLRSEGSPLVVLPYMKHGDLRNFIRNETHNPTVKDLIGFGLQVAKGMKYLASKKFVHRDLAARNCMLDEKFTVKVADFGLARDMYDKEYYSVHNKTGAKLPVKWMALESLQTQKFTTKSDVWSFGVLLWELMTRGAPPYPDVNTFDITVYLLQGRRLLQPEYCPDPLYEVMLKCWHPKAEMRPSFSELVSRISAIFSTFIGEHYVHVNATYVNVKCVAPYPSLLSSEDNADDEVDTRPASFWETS
Experiment: c-Met Inhibition Assay, coupled enzyme system
Format: biochemical
Settings: enzyme inhibition data (Ki), Table 11
pKi: −log10 of the molar value.
Measurement Type: pKi

{"Compound": "COCCNc1ccc(-c2cnc3c(-c4ccccn4)c(N)nn3c2)cn1", "Measurement Type": "pKi", "Obs Value": "> 6.30"}

Inquiry: Fill in: pKi on c-Met (Homo sapiens), entry `CCOC(=O)c1c(N)nn2cc(-c3ccc(Cl)cc3)cnc12`
Reply text: 5.30 to 6.30

Inquiry: Given `Nc1nn2cc(-c3cccc(C(=O)NCCF)n3)cnc2c1-c1ccccn1` , report its pKi on c-Met (Homo sapiens).
Reply text: > 6.30

Inquiry: Give pKi only, for `Nc1nn2cc(-c3ccncn3)cnc2c1C(=O)O` , using c-Met (Homo sapiens) data.
Reply text: 5.30 to 6.30

Inquiry: Give pKi for this entry on c-Met (Homo sapiens): Nc1nn2cc(-c3ccc(C(=O)N4CCCCC4CCO)cn3)cnc2c1-c1ccccn1 (centres unmarked)
Reply text: > 6.30

Inquiry: Provide measured pKi on c-Met (Homo sapiens) for `N#CCCN(Cc1ccccc1)C(=O)c1c(N)nn2cc(-c3ccncn3)cnc12` please.
Reply text: 5.30 to 6.30

Inquiry: Please tell me the measured pKi for `Nc1nn2cc(-c3ccnc(N4CCC(N5CCCC5)CC4)c3)cnc2c1-c1ccccn1` ; system: c-Met (Homo sapiens).
Reply text: 5.30 to 6.30

Inquiry: Recall the reported pKi of `CN(CCc1ccccn1)C(=O)c1cccc(-c2cnc3c(-c4ccccn4)c(N)nn3c2)n1` when tested on c-Met (Homo sapiens).
Reply text: > 6.30

----------
Collected pKi values appear next to each entry.
Target: Itk (Homo sapiens, UniProt Q08881)
Assay: ITK Inhibition Assay (Radiometric), radioactive-phosphate incorporation
Type: biochemical
Conditions: enzyme inhibition data (Ki), Table 11; radiometric or UV assay not stated
pKi: −log10 of the molar value.

{"Molecule": "Nc1nn2cc(-c3ccccc3F)cnc2c1-c1ccccn1", "Target Or Test System": "Itk (Homo sapiens, UniProt Q08881)", "Measurement Type": "pKi", "Obs Value": "5.30 to 6.30"}
{"Molecule": "Nc1nn2cc(CCCN3CCCCC3)cnc2c1-c1ccccn1", "Target Or Test System": "Itk (Homo sapiens, UniProt Q08881)", "Measurement Type": "pKi", "Obs Value": "5.30 to 6.30"}
{"Molecule": "Nc1nn2cc(-c3ccc(C(=O)N4CCCCC4)cn3)cnc2c1-c1ccccn1", "Target Or Test System": "Itk (Homo sapiens, UniProt Q08881)", "Measurement Type": "pKi", "Obs Value": "> 6.30"}

Inquiry: Input `CN(CC1OCCO1)C(=O)c1ccc(-c2cnc3c(-c4ccccn4)c(N)nn3c2)nc1` , output reported pKi.
Reply text: > 6.30

Inquiry: State its pKi: `CC(C)N(C)C(=O)c1ccc(-c2cnc3c(-c4ccccn4)c(N)nn3c2)nc1`
Reply text: 5.30 to 6.30

Inquiry: Tell us which pKi value is on record for `Nc1nn2cc(-c3cccc(CO)c3)cnc2c1-c1ccccn1`
Reply text: 5.30 to 6.30

Inquiry: Item NC1NN2C=C(c3cccc(CN4CCCNCC4)c3)C=NC2=C1c1ccccn1 (stereo not drawn) : provide pKi
Reply text: > 6.30

Inquiry: Query pKi for `Nc1nn2cc(-c3ccccc3-c3ccccc3)cnc2c1-c1ccccn1`
Reply text: 5.30 to 6.30

Inquiry: Give reported pKi value for `CN(C)c1ccc(CNC(=O)c2c(N)nn3cc(-c4ccncn4)cnc23)cc1`
Reply text: 5.30 to 6.30

Entry source: patent US7528138B2
